Source: ChEMBL document CHEMBL5724914

Experimental conditions: human gut metagenome, 24 h, 2 µM; also: call rule not given here
Experimental readout: Bacterial Biotransformation

Here is how some compounds turned out for Bacterial Biotransformation.
{"columns": ["Compound", "Experimental readout", "Recorded value"],
 "data": [
  ["CNC(=C[N+](=O)[O-])NCCSCc1ccc(CN(C)C)o1", "Bacterial Biotransformation", "Compound metabolized"],
  ["Cc1cc2c(cc1S(N)(=O)=O)S(=O)(=O)CCC2", "Bacterial Biotransformation", "Compound NOT metabolized"],
  ["Clc1ccc(Cn2c(CN3CCCC3)nc3ccccc32)cc1", "Bacterial Biotransformation", "Compound metabolized"],
  ["CCN(CC)CCNC(=O)c1cc(Cl)c(N)cc1OC [METOCLOPRAMIDE]", "Bacterial Biotransformation", "Compound NOT metabolized"],
  ["CCOc1ccc(NC(C)=O)cc1", "Bacterial Biotransformation", "Compound NOT metabolized"]
]}

q: Fill in the blank: the reported Bacterial Biotransformation of CC(CN1c2ccccc2Sc2ccccc21)N(C)C (stereo not given) is ____.
a: Compound NOT metabolized

q: Item CCCCCOC(=O)Nc1nc(=O)n([C@@H]2O[C@H](C)[C@@H](O)[C@H]2O)cc1F has what recorded Bacterial Biotransformation?
a: Compound metabolized

q: Entry under review: Cc1ccc(S(=O)(=O)NC(=O)NN2CC3CCCC3C2)cc1 (stereo not given) [GLICLAZIDE] . Reported Bacterial Biotransformation?
a: Compound metabolized

q: I'd like to know its Bacterial Biotransformation. The compound in question is CCC1(c2ccc(N)cc2)CCC(=O)NC1=O (stereo not given) [AMINOGLUTETHIMIDE]
a: Compound NOT metabolized

q: Which Bacterial Biotransformation value belongs to COC1=CC(=O)C[C@@H](C)[C@]12Oc1c(Cl)c(OC)cc(OC)c1C2=O ?
a: Compound NOT metabolized

====

Experimental protocol: The drug is tested on Z-009 corresponding to pig gut metagenome with ENA study accession number: PRJEB37062 and ENA sample accession number: ERS12561809 for biotransformation under anaerobic condition. The drug concentrations were measured over 9 timepoints collected between 0 and 24 hours of incubation by liquid-chromatography-coupled mass spectrometry (LC–MS)
Experimental conditions: 2 µM
Experimental readout: Bacterial Biotransformation

{"columns": ["Molecule", "Bacterial Biotransformation"],
 "data": [
  ["O=C(Nc1ccccc1)OCC(CN1CCCCC1)OC(=O)Nc1ccccc1 (centres undefined) [DIPERODON]", "Compound metabolized"],
  ["O=C(O)COCCN1CCN(C(c2ccccc2)c2ccc(Cl)cc2)CC1 (centres undefined) [CETIRIZINE]", "Compound metabolized"],
  ["NS(=O)(=O)c1cc2c(cc1Cl)N=C(CSCc1ccccc1)NS2(=O)=O [BENZTHIAZIDE]", "Compound NOT metabolized"],
  ["CNC(=C[N+](=O)[O-])NCCSCc1ccc(CN(C)C)o1 [RANITIDINE]", "Compound metabolized"],
  ["CN1CC(=O)N2[C@H](c3ccc4c(c3)OCO4)c3[nH]c4ccccc4c3C[C@@H]2C1=O", "Compound metabolized"]
]}

q: Bench note: what Bacterial Biotransformation did CCCC(=O)Nc1ccc(OCC(O)CNC(C)C)c(C(C)=O)c1 (centres undefined) [ACEBUTOLOL] show?
a: Compound NOT metabolized

q: Query: Bacterial Biotransformation; subject: COc1ccc(CCN(C)CCCC(C#N)(c2ccc(OC)c(OC)c2)C(C)C)cc1OC (centres undefined)
a: Compound metabolized

q: Quick check: Bacterial Biotransformation of CCN(CC)CCNC(C(=O)OCCC(C)C)c1ccccc1.Cl.Cl (centres undefined) ?
a: Compound metabolized

q: What value of measured Bacterial Biotransformation is listed for COc1cc2c(c(OC)c1OC)-c1ccc(OC)c(=O)cc1[C@@H](NC(C)=O)CC2 [COLCHICINE] ?
a: Compound metabolized

====

Experimental conditions: human gut metagenome, 24 h, 2 µM
Experimental readout: Bacterial Biotransformation

{"columns": ["Molecule", "Bacterial Biotransformation"],
 "data": [
  ["COC(=O)Nc1nc2ccc(C(=O)c3ccccc3)cc2[nH]1 [MEBENDAZOLE]", "Compound NOT metabolized"],
  ["Clc1ccc(Cn2c(CN3CCCC3)nc3ccccc32)cc1 [CLEMIZOLE]", "Compound metabolized"],
  ["OCCOCCN1CCN(C2=Nc3ccccc3Sc3ccccc32)CC1 [QUETIAPINE]", "Compound metabolized"],
  ["COc1ccccc1OCC(O)CN1CCN(CC(=O)Nc2c(C)cccc2C)CC1 (centres undefined) [RANOLAZINE]", "Compound NOT metabolized"]
]}

q: If you can, please state the reported Bacterial Biotransformation value of CCCCCOC(=O)Nc1nc(=O)n([C@@H]2O[C@H](C)[C@@H](O)[C@H]2O)cc1F [CAPECITABINE] .
a: Compound metabolized

q: Look up Bacterial Biotransformation: Nc1c2c(nc3ccccc13)CCCC2 [TACRINE]
a: Compound NOT metabolized

q: Could you tell me which Bacterial Biotransformation is on file for CC(CN1c2ccccc2Sc2ccccc21)N(C)C (centres undefined) [PROMETHAZINE] ?
a: Compound NOT metabolized

q: Fill in: Bacterial Biotransformation of Cc1ccnc2c1NC(=O)c1cccnc1N2C1CC1 [NEVIRAPINE] is ___
a: Compound metabolized

q: For CC(C)(C#N)c1cc(Cn2cncn2)cc(C(C)(C)C#N)c1 [ANASTROZOLE] , what is its reported Bacterial Biotransformation?
a: Compound metabolized

q: Report Bacterial Biotransformation for CCc1nn(CCCN2CCN(c3cccc(Cl)c3)CC2)c(=O)n1CCOc1ccccc1 [NEFAZODONE] please.
a: Compound NOT metabolized

q: I would be grateful if you could share the reported Bacterial Biotransformation for NC12CC3CC(CC(C3)C1)C2 [AMANTADINE] .
a: Compound NOT metabolized

q: Would you kindly share the measured Bacterial Biotransformation for COc1c(C)c2c(c(O)c1C/C=C(\C)CCC(=O)OCCN1CCOCC1)C(=O)OC2 [MYCOPHENOLATE MOFETIL] ?
a: Compound metabolized

q: // returns reported Bacterial Biotransformation for input C=CCc1ccccc1OCC(O)CNC(C)C (centres undefined) [ALPRENOLOL]
a: Compound metabolized

q: Consider the molecule shown here: CCCCC(=O)N(Cc1ccc(-c2ccccc2-c2nnn[nH]2)cc1)[C@H](C(=O)O)C(C)C What is its recorded Bacterial Biotransformation?
a: Compound metabolized

q: Quick check: Bacterial Biotransformation of CC(=O)OCC(=O)[C@@]12N=C(C)O[C@@H]1C[C@H]1[C@@H]3CCC4=CC(=O)C=C[C@]4(C)[C@H]3[C@@H](O)C[C@@]12C [DEFLAZACORT] ?
a: Compound metabolized

====

Experimental conditions: human gut metagenome, 24 h, 2 µM
Experimental readout: Bacterial Biotransformation

{"columns": ["Molecule", "Bacterial Biotransformation"],
 "data": [
  ["O=c1[nH]c2ccccc2n1C1CCN(CCCC(c2ccc(F)cc2)c2ccc(F)cc2)CC1 [PIMOZIDE]", "Compound metabolized"],
  ["CCCC(=O)Nc1ccc(OCC(O)CNC(C)C)c(C(C)=O)c1 (stereo not given)", "Compound metabolized"],
  ["COc1cc2c(c(OC)c1OC)-c1ccc(OC)c(=O)cc1[C@@H](NC(C)=O)CC2", "Compound NOT metabolized"],
  ["CN1C(=O)CCS(=O)(=O)C1c1ccc(Cl)cc1 (stereo not given)", "Compound NOT metabolized"]
]}

Now, please, on to the next molecule.
q: Consider the molecule O=C(NCc1ccccc1)OCCO [BURAMATE] and give its measured Bacterial Biotransformation.
a: Compound NOT metabolized

====

Experimental protocol: The drug is tested on Z-028 corresponding to mouse gut metagenome with ENA study accession number: PRJEB37062 and ENA sample accession number: ERS12561827 for biotransformation under anaerobic condition. The drug concentrations were measured over 9 timepoints collected between 0 and 24 hours of incubation by liquid-chromatography-coupled mass spectrometry (LC–MS)
Experimental conditions: 2 µM
Where a SMILES comes first, the peptide text is derived from it. [ ]: non-standard residue; d: D form. pGlu = O=C1CC[C@@H](C(=O)O)N1; Thz = O=C(O)[C@@H]1CSCN1
Experimental readout: Bacterial Biotransformation

Sample answers from the record:
{"columns": ["Compound", "Recorded value"],
 "data": [
  ["CCOC(=O)[C@H](CCc1ccccc1)N[C@H]1CCc2ccccc2N(CC(=O)O)C1=O [BENAZEPRIL]", "Compound metabolized"],
  ["O=C1CC[C@@H](C(=O)N2CSC[C@H]2C(=O)O)N1 [PIDOTIMOD] ([pGlu]-[Thz]-OH)", "Compound NOT metabolized"],
  ["CC(C)N(CCC(C(N)=O)(c1ccccc1)c1ccccn1)C(C)C.O=P(O)(O)O (stereo not drawn) [DISOPYRAMIDE PHOSPHATE]", "Compound NOT metabolized"],
  ["CC(CN(C)C)CN1c2ccccc2CCc2ccccc21.O=C(O)/C=C\\C(=O)O (stereo not drawn) [TRIMIPRAMINE MALEATE]", "Compound NOT metabolized"],
  ["CCN1CCCC1CNC(=O)c1cc(S(N)(=O)=O)ccc1OC (stereo not drawn) [SULPIRIDE]", "Compound NOT metabolized"]
]}

# ---- query compound ----
q: Field request: Bacterial Biotransformation | item: COc1ccccc1OCC(O)COC(N)=O (stereo not drawn) [METHOCARBAMOL]
a: Compound NOT metabolized
